Consider the following binders and their measured % reduction in OD readings.
target: pre-existing anti-scFv903 antibodies in human serum H81 (human)
assay.explanation: competition ADA bridging ELISA, 100 mcg/ml competitor
Field format: number, assumed %, no unit text.

Answered cases to consult:
Return reported % reduction in OD; argument: scFv 903 (scFv) scFv: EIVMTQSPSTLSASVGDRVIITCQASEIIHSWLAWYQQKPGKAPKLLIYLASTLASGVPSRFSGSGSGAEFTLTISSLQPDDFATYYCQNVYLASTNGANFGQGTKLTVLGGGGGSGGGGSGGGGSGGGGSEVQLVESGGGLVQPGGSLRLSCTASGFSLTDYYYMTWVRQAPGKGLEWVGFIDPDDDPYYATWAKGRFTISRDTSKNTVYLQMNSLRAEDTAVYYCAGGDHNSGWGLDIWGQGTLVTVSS
-94.7

Return reported % reduction in OD; argument: scFv105 (scFv) scFv: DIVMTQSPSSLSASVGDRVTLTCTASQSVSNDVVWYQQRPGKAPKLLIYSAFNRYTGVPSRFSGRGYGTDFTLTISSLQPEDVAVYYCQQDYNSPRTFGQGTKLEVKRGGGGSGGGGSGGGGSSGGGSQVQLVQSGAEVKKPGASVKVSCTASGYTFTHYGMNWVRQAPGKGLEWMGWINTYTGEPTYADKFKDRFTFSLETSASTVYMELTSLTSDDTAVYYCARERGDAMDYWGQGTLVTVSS
-18.1

Continue with the next binder.
Return reported % reduction in OD; argument: scFv 961 (scFv) scFv: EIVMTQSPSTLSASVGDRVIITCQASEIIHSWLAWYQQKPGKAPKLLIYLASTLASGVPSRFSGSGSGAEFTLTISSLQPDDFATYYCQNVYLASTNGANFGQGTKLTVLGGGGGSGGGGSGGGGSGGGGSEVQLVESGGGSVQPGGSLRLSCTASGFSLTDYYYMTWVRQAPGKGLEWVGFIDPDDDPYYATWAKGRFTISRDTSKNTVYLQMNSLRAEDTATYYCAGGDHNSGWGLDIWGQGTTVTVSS
-8.8
